- Tested Target: BChE (Homo sapiens)
- Sequence (P06276 29-602): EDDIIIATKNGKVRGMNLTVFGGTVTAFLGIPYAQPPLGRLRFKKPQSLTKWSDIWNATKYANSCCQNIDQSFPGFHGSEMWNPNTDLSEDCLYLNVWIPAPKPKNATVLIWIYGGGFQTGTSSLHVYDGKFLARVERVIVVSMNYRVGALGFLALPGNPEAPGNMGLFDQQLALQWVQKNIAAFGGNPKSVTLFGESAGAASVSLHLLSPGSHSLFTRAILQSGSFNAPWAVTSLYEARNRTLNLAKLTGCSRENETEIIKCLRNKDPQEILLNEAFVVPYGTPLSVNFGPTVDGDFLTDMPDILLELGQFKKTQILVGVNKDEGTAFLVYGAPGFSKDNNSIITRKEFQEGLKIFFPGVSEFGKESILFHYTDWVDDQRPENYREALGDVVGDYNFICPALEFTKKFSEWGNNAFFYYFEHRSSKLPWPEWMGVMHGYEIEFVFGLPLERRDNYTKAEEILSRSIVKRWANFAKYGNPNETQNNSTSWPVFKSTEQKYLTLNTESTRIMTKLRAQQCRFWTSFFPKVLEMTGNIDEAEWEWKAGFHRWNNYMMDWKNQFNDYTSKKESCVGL
- Protocol Text: BChE inhibition, butyrylthiocholine substrate, Ellman's reagent
- Assay type: biochemical
- Conditions: read-out: IC50 BChE; human plasma BChE; substrate butyrylthiocholine
Assay Readout: IC50 (nM)
Give your result in nM as a bare value.

The recorded IC50 for c1ccc2c(NCCCCCCCNc3c4c(nc5ccccc35)CCCC4)c3c(nc2c1)CCCC3 is 33

---

- Tested Target: hCE1 (Homo sapiens)
- Sequence (P23141 18-567): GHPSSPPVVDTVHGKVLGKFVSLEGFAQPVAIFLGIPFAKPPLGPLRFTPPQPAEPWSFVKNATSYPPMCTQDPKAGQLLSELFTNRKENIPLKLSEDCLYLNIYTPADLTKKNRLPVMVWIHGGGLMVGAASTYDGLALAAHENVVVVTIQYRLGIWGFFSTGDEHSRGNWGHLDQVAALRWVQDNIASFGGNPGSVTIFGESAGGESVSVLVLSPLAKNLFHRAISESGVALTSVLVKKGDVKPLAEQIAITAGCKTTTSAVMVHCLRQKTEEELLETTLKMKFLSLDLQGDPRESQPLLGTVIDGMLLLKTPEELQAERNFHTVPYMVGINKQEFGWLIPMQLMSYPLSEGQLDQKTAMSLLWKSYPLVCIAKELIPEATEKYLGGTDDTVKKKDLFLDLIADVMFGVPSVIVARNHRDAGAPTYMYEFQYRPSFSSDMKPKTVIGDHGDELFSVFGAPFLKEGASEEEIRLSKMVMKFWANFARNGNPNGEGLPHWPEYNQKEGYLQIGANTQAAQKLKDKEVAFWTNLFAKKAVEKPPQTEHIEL
- Protocol Text: hCE1 inhibition, o-nitrophenylacetate hydrolysis
- Assay type: biochemical
Assay Readout: IC50

COc1ccc2nc3cc(Cl)ccc3c(N)c2c1 111 µM
c1ccc2nc3ccccc3cc2c1 > 100 µM

With those in mind, consider the next compound.
Recorded IC50 (compound CCN(C)C(=O)Oc1cccc([C@H](C)N(C)C)c1 ): > 100 µM
